protocol_details: Phase I clinical trial: plasma concentrations after weekly intravenous infusion (pharmacokinetics)
Type: in vivo, human
experimental_parameters: human, plasma, iv, 4.5 mg/m^2, Day 15; 4.5 mg/m^2 i.v.; infusion 2 hr; 2 hr after infusion; LLOQ 1 ng/mL
Structures can show the parent of a compound that is named as a salt.
measurement_kind: concentration at 2 h (ng/mL)
Give just the number in ng/mL; leave the unit off.

IN: Report concentration at 2 h for COc1ccc(N(C)c2nc(C)nc3ccccc23)cc1 [hydrochloride]
OUT: 13.1

---

protocol_details: Phase I clinical trial: plasma concentrations after weekly intravenous infusion (pharmacokinetics)
Type: in vivo, human
experimental_parameters: human, plasma, iv, 2.1 mg/m^2, Day 15; 2.1 mg/m^2 i.v.; infusion 1 hr; 12 hr after infusion; LLOQ 1 ng/mL
Counter-ions that a name gives are not always drawn.
measurement_kind: concentration at 12 h
Answer as a quantity: numeral, then unit.

IN: # return recorded concentration at 12 h for input COc1ccc(N(C)c2nc(C)nc3ccccc23)cc1 [hydrochloride]
OUT: 1.09 ng/mL

---

protocol_details: Phase I clinical trial: plasma concentrations after weekly intravenous infusion (pharmacokinetics)
Format: in vivo, human
experimental_parameters: human, plasma, iv, 2.7 mg/m^2, Day 1; 2.7 mg/m^2 i.v.; infusion 1 hr; 2 hr after infusion; LLOQ 1 ng/mL
Counter-ions that a name gives are not always drawn.
measurement_kind: concentration at 2 h after end of infusion (ng/mL)
Report as a plain number; the unit ng/mL is understood.

IN: # return recorded concentration at 2 h after end of infusion for input COc1ccc(N(C)c2nc(C)nc3ccccc23)cc1 [hydrochloride]
OUT: 4.37

---

protocol_details: Phase I clinical trial: plasma concentrations after weekly intravenous infusion (pharmacokinetics)
Assay type: in vivo, human
experimental_parameters: human, plasma, iv, 3.3 mg/m^2, Day 15; 3.3 mg/m^2 i.v.; infusion 2 hr; 2 hr after infusion; LLOQ 1 ng/mL
Where a name gives a salt, the structure may show the parent alone.
measurement_kind: concentration at 2 h (ng/mL)
Give your result in ng/mL as a bare value.

IN: Dear colleague, please send me the reported concentration at 2 h for COc1ccc(N(C)c2nc(C)nc3ccccc23)cc1 [hydrochloride] when you can.
OUT: 3.8

---

protocol_details: Phase I clinical trial: plasma concentrations after weekly intravenous infusion (pharmacokinetics)
Assay type: in vivo, human
experimental_parameters: human, plasma, iv, 2.7 mg/m^2, Day 1; 2.7 mg/m^2 i.v.; infusion 1 hr; 24 hr after infusion; LLOQ 1 ng/mL
Structures can show the parent of a compound that is named as a salt.
measurement_kind: concentration at 24 h after end of infusion (ng/mL)
I only need the number, in ng/mL, no unit after it.

IN: Quick one: give measured concentration at 24 h after end of infusion for COc1ccc(N(C)c2nc(C)nc3ccccc23)cc1 [hydrochloride]
OUT: 1.36

---

protocol_details: Phase I clinical trial: plasma concentrations after weekly intravenous infusion (pharmacokinetics)
Type: in vivo, human
experimental_parameters: human, plasma, iv, 2.7 mg/m^2, Day 15; 2.7 mg/m^2 i.v.; infusion 1 hr; 12 hr after infusion; LLOQ 1 ng/mL
Counter-ions that a name gives are not always drawn.
measurement_kind: concentration at 12 h (ng/mL)
The response must be a number in ng/mL with no trailing unit.

IN: Specify concentration at 12 h for COc1ccc(N(C)c2nc(C)nc3ccccc23)cc1 [hydrochloride] and stop.
OUT: 3.95

Origin of measurements: patent US20100087457A1
